The reported numbers originate from paper PMC12951562.

Below is a list of entries, each paired with its recorded pKd value.
- target.system: CISH (Homo sapiens, UniProt Q9NSE2)
- Construct: the DNA-tagged SH2 domain concentrations used in this study were <0.1 nM; made in house; host or cells: HEK293 (transient transfection; unpurified extract)
- Sequence (Q9NSE2 82-163 limits assumed): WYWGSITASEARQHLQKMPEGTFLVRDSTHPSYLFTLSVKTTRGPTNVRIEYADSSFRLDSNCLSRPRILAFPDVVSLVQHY
- method.summary: biochemical
- Type: binding
- condition.description: dose-response; read-out: KD
pKd: −log10 of the molar value.
property: pKd

• O=C(CCl)Nc1cccc(CNC(=O)[C@H](Cc2ccc(OP(=O)(O)O)cc2)NC(=O)Cc2ccc(F)cc2)c1 [MN551] = 7.34
• O=C(COc1ccc2cc(C(=O)Nc3ccccc3)ccc2c1)NCc1ccc(OP(=O)(O)O)c(OP(=O)(O)O)c1 [Stafib-1] = 5.41
• C/C(=C\C(=O)N[C@H](C(=O)N1CCC[C@H]1C(=O)N(c1ccccc1)c1ccc(I)cc1)C(C)(C)C)c1ccc(OP(=O)(O)O)cc1 [STAT6-IN-1] = 5.44
• CC(C)(C)[C@H](NC(=O)/C=C/c1ccc(OP(=O)(O)O)cc1)C(=O)N1CCC[C@H]1C(=O)N(c1ccccc1)c1ccc(I)cc1 [STAT6-IN-3] = 5.38
